# credit: paper PMC7665192

Target: T1, bovine liver CAT (C-40; Sigma) (bovine, UniProt P00432 1-527)
T1 construct: catalase from bovine liver; also called bovine CAT; bovine liver catalase; source: bought: Sigma (C-40), bovine liver
T1 sequence (looked up): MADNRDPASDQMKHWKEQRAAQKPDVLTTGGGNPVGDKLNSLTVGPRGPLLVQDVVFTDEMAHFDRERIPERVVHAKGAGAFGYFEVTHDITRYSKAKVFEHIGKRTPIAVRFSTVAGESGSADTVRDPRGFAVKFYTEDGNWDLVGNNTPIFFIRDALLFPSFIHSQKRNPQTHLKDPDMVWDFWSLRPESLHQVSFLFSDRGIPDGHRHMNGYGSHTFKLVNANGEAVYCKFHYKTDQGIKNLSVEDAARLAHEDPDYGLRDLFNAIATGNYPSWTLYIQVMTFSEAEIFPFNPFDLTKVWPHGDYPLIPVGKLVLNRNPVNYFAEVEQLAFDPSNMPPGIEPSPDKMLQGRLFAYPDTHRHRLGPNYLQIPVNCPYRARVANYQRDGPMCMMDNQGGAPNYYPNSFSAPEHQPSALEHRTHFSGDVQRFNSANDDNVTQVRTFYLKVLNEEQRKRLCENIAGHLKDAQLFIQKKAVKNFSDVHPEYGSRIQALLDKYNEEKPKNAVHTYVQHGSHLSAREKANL
Experiment: SPR; Biacore T100, 20 °C, flow 100 μL/min; bovine liver CAT amine-coupled to Series S CM5 chip, pAtPNP-A at 3.78 μM and consecutive twofold dilutions (11 injections); regeneration with glycine pH 2.0; kinetic analysis
Details: both partners purified
Positions of bridges follow the written chain, without caps; N, C: chain ends. No end group written: not given here.
measure_name: Kd (nM)
Just the number in nM, nothing appended.

Look up Kd for this binder: YDPPYTRSACYGTQRETLVVGVKNNLWQNGRACG (peptide, UniProt Q9ZV52 33-66, looked up, disulfide 10-33 (inferred); not fully specified, AtPNP-A (plant natriuretic peptide A), A. thaliana, active region, amino acids 33-66; peptides were made with or without a C-terminal biotin tag; also called biologically active fragment of AtPNP-A; source: synthetic peptide (GenScript, purity > 95%)) 86
